System: Mus musculus
Experiment: Toxicity against BALB/c Mus musculus (mouse) assessed as SGOT level at 10 mg/kg, ip administered 2 times per week for 30 days (reference value: 71 +/- 4 IU/l)
Type: organism-based
Parameters: dose 10 mg/kg, route intraperitoneal
Conditions: in vivo, 720 h
Give 1 when the value for Activity is at least 70 IU/L. Give 0 when it is less.

>  <molecule>
O=C1CN(C2CCCCC2)C(=O)CN1C1CCCCC1

>  <group-label>
1

$$$$
>  <molecule>
Cc1ccc(N2CC(=O)N(c3ccc(C)cc3)CC2=O)cc1

>  <group-label>
1

$$$$
>  <molecule>
O=C1CN(c2cccc(Cl)c2)C(=O)CN1c1cccc(Cl)c1

>  <group-label>
0

$$$$
>  <molecule>
O=C1CN(c2ccccc2)C(=O)CN1c1ccccc1

>  <group-label>
1

$$$$

Recorded values, source ChEMBL document CHEMBL3046404.
